Reported self-cleavage is given for each of the following variants.
B1: CPEB3 Ribozyme (parent)
chain: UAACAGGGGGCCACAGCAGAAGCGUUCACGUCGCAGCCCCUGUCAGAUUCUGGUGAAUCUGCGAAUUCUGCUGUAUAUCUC

Variants of: B1
Test: self-cleavage, relative activity (ratio to wild type); higher = more cleavage; in vitro, sequencing

MUTATIONS	self-cleavage
U54G G63A	0.91
U41C U78C	1.06
A20G C68A	0.24
U1C A13U	1.13
C27U U48C	0.18
U25A C50A	0.41
